biological target: hA3AR (Homo sapiens, UniProt P0DMS8); construct: expressed in transfected cells; host or cells: CHO cells (CHOhA3AR), gift of Prof; K.N. Klotz, University of Würzburg; used as membrane fractions or live cells; test: Wash-out assay, [3H]PSB-11 binding after washing; conditions: 1 μM compound, pre-incubated 2 h at 25 °C, washed 4 times
Sequence (P0DMS8 whole entry): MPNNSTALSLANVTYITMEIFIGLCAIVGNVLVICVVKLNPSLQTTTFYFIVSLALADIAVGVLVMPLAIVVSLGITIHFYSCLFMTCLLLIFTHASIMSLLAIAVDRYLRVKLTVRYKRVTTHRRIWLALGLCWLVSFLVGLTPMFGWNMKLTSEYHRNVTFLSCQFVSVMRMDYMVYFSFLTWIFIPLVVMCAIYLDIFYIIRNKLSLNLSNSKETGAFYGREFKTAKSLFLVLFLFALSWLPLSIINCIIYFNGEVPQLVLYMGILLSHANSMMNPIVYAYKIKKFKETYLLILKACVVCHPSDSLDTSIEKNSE
attribute_measured: binding to hA3AR after wash-out ([3H]PSB-11 binding recovery)

# compound, experimental_target, value_observed
data = [
    ("C#CCOc1ccn2c(c1)nc1c2c(=O)n(CCC)c(=O)n1CCCNC(=O)c1ccc(S(=O)(=O)F)cc1 [compound 9]", "hA3AR (Homo sapiens, UniProt P0DMS8)", "persistent binding"),
    ("C#CCN(CCCn1c(=O)n(CCC)c(=O)c2c1nc1cc(OC)ccn12)C(=O)c1ccc(S(=O)(=O)F)cc1 [compound 5]", "hA3AR (Homo sapiens, UniProt P0DMS8)", "persistent binding"),
    ("C#CCn1c(=O)c2c(nc3cc(OC)ccn32)n(CCCNC(=O)c2ccc(S(=O)(=O)F)cc2)c1=O [compound 13]", "hA3AR (Homo sapiens, UniProt P0DMS8)", "persistent binding"),
]
